Recorded values, source patent US10526316B2.

Target: PI3Kδ (Homo sapiens)
Sequence (O00329 1-1044): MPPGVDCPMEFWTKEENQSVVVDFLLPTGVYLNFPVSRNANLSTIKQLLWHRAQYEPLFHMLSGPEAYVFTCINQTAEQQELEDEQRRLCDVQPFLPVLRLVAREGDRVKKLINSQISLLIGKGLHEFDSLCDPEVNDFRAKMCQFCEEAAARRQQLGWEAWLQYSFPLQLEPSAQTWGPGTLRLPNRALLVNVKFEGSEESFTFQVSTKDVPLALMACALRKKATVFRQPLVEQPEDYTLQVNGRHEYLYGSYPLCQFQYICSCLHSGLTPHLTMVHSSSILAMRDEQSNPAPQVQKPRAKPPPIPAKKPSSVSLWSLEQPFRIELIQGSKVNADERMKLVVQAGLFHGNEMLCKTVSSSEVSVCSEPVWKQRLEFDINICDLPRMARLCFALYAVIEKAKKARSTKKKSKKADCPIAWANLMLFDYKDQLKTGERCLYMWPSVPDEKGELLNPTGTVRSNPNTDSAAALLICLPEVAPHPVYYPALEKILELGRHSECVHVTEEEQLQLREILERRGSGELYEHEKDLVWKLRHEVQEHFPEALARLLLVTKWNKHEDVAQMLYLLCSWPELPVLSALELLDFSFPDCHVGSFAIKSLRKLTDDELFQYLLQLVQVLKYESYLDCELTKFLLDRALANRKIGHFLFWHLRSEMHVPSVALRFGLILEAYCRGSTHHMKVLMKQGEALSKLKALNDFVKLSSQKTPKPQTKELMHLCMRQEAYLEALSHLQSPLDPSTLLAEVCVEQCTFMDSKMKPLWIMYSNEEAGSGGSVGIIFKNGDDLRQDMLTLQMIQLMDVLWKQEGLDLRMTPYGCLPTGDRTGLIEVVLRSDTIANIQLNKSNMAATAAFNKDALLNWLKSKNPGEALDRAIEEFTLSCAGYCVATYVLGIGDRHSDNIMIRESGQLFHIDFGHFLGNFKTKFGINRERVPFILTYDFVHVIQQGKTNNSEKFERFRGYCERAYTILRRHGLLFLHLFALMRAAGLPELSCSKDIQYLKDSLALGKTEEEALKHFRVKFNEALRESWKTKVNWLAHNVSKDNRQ
Result Type: Kd (nM)

Guide cases for Kd, answers given:
Compound | Result Type | Reported Result
CC1CN(c2cnc3cc(C(=O)N(C)C)cc(C4CCCN4c4cc(F)cc(F)c4)c3n2)CCO1 (stereo not shown) | Kd | 107
CC(C)NCCN(C)C(=O)c1cc(N(C)Cc2cc(F)cc(F)c2)c2nc(N3CCOCC3)cnc2c1 | Kd | 3240
CN[C@H]1CCN(C(=O)c2cc(C(C)Oc3cc(F)c(F)c(F)c3)c3nc(N4CCOCC4)cnc3c2)C1 (single isomer, unassigned) [Compound 405b] | Kd | 219

1. CC(c1cc(C(=O)N2CCOCC2)cc2ncc(N3CCOCC3)nc12)N(C)c1cccc(F)c1 (stereo not shown)
2. Cc1c(F)cccc1NCc1cc(C(=O)NCCO)cc2ncc(N3CCOCC3)nc12
Task: Compare reported Kd values for 1 and 2 . Which is lower? Reply with the label of the item you choose.
Result: 1
(1: 871 nM, 2: 3800 nM)
